Values compiled from the supplement of paper PMC9694430.

tested on: LOC_OS05G30820-cb001; assay: thermal shift delta Tm vs DMSO control; higher = stronger stabilization (binding); settings: 12.5 µM; protein concentration 2 µM;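 also: purified Escherichia coli-expressed rice kinase domain construct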
Listing of recorded thermal shift delta Tm by entry.
Just the number in °C, nothing appended.

| compound | thermal shift delta Tm [°C] |
| --- | --- |
| Cn1ncc(Cl)c1-c1cc(C(=O)N[C@H](CN)Cc2ccc(F)c(F)c2)oc1Cl | 0.24 |
| COc1cc(N2CCC(N(C)C)CC2)ccc1Nc1ncc(Cl)c(Nc2ccccc2P(C)(C)=O)n1 | 1.4 |
| Cc1ncc(-c2ccnc(Nc3ccc(S(C)(=O)=O)cc3)n2)n1C(C)C | 1.14 |
| CN1CCN(Cc2ccc(-c3cnc4[nH]cc(-c5ccc6[nH]ccc6c5)c4c3)cc2)CC1 | 1.88 |

Turning now to a further record.
Data request, read-out thermal shift delta Tm, for COc1cc2c(N3CCN(C(=O)Nc4ccc(OC(C)C)cc4)CC3)ncnc2cc1OCCCN1CCCCC1 [Tandutinib (MLN518)]
0.16

----------
tested on: LOC_OS01G39600-cb002; assay: thermal shift delta Tm vs DMSO control; higher = stronger stabilization (binding); settings: 12.5 µM; protein concentration 2 µM
# thermal shift delta Tm annotations
Your answer should be a plain number; it is taken to be in °C.

Example entries begin here.
| compound | units-of-measure | thermal shift delta Tm |
| --- | --- | --- |
| CC(C)(C)Cn1c(N)nc2ccc(-c3[nH]c(C(C)(C)C)nc3-c3ccc(F)cc3)nc21 | °C | -0.5 |
| N#Cc1c(NC(=O)c2cccc3ccccc23)sc2c1CCCC2 [JNK Inhibitor IX] | °C | -0.09 |
| C#Cc1cccc(Nc2ncnc3cc4c(cc23)OCCOCCOCCO4)c1 [Icotinib] | °C | 2.84 |
| COc1c(C)c(C(=O)c2ccc(N)c(C(=O)O)c2)n2ccccc12 | °C | -11.6 |
| COc1ccc(Cl)c(Nc2nc3ccccc3nc2NS(=O)(=O)c2cccc(NC(=O)C(C)(C)N)c2)c1 [Pilaralisib (XL147)] | °C | 2.65 |

Report thermal shift delta Tm for O=S(=O)(c1cccc2c(I)cccc12)N1CCCNCC1 please.
0.27

Consider next the compound CNC(=O)c1ccccc1Sc1ccc2c(/C=C/c3ccccn3)n[nH]c2c1 [Axitinib] in the same way.
1.08

Same lookup for CC(C)c1c2cc(-c3ccnc(NC4CCC(NC5CCOCC5)CC4)n3)ccc2nn1C (stereo not drawn) , please.
1.1

----------
We begin with a simple list: items and their reported thermal shift delta Tm.
test system: LOC_OS04G38480-cb003; experiment: thermal shift delta Tm vs DMSO control; higher = stronger stabilization (binding); conditions: 12.5 µM; protein concentration 2 µM
Sequence (as listed by the source): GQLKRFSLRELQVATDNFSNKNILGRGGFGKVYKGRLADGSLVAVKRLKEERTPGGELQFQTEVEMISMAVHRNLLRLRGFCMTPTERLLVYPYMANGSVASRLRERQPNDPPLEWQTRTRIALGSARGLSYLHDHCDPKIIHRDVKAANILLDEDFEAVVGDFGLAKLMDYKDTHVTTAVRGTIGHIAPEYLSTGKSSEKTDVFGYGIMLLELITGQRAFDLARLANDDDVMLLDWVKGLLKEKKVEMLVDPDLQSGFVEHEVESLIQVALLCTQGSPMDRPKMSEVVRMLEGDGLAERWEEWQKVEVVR
Numeric only. Scale: °C

Known results for compounds:
| compound | readout-kind | reported-value |
| --- | --- | --- |
| CN1CC(O)C2=C/C(=N/NC(N)=O)C(=O)C=C21 (stereo not given) | thermal shift delta Tm | 0.38 |
| CN1CC[C@H](c2c(O)cc(O)c3c(=O)cc(-c4ccccc4Cl)oc23)[C@H](O)C1 [Flavopiridol (Alvocidib)] | thermal shift delta Tm | 0.88 |
| Cc1cc(C(C)Nc2ccccc2)c2nc(N3CCOCC3)cc(=O)n2c1 (stereo not given) | thermal shift delta Tm | 0.36 |
| Oc1cccc(-c2nc(N3CCOCC3)c3oc4ncccc4c3n2)c1 | thermal shift delta Tm | 1.17 |
| COc1cc2c(c(OC)c1OC)-c1c(cc3c(c1OC)OCO3)CC(C)C(C)C2 (stereo not given) [Schisandrin B (Sch B)] | thermal shift delta Tm | 0.75 |
| COc1cc2ncnc(Nc3cccc(Cl)c3)c2cc1OC | thermal shift delta Tm | 2.27 |
| O=C(O)c1cc(O)c2c(c1)[C@@H]([C@H]1c3cc(C(=O)O)cc(O)c3C(=O)c3c(O[C@@H]4O[C@H](CO)[C@@H](O)[C@H](O)[C@H]4O)cccc31)c1cccc(O[C@@H]3O[C@H](CO)[C@@H](O)[C@H](O)[C@H]3O)c1C2=O [Sennoside B] | thermal shift delta Tm | 3.9 |
| COc1cc(Nc2c(C#N)cnc3cc(OCCCN4CCN(C)CC4)c(OC)cc23)c(Cl)cc1Cl [Bosutinib (SKI-606)] | thermal shift delta Tm | 1.14 |
| CC[C@@H](N)CNc1ccnc(-c2cc(-c3cnn(C)c3)ccc2O)n1 | thermal shift delta Tm | 1.41 |
| Cc1cc(F)c(Nc2ncnc3cc(OCc4ccccc4)ccc23)cc1O | thermal shift delta Tm | 1.35 |

Proceed to the following item.
Fill in the blank: the reported thermal shift delta Tm of COc1cc(Nc2ncc(F)c(Nc3ccc4c(n3)NC(=O)C(C)(C)O4)n2)cc(OC)c1OC is ____.
4.12

----------
test system: LOC_OS01G39600-cb002; experiment: thermal shift delta Tm vs DMSO control; higher = stronger stabilization (binding); details: 12.5 µM; protein concentration 2 µM
readout-kind: thermal shift delta Tm (°C)
Report as a plain number; the unit °C is understood.

| molecule | reported-value |
| --- | --- |
| Cc1cccc(Nc2nc(NC3CCCCC3N)ncc2C(N)=O)c1 (stereo not drawn) | 0.32 |
| COC(=O)c1ccc2c(c1)NC(=O)/C2=C(\Nc1ccc(N(C)C(=O)CN2CCN(C)CC2)cc1)c1ccccc1 | 1.74 |
| CCC[C@H](NC(=O)/C(C#N)=C/c1cccc(Br)n1)c1ccccc1 [Degrasyn (WP1130)] | -4.1 |
| COc1ccc(Cl)cc1NC(=O)Nc1cc(C)nc2ccccc12 | -1.53 |
| Cc1[nH]nc2ccc(-c3cncc(OC[C@@H](N)Cc4ccccc4)c3)cc12 | -0.73 |

Hello, I am looking for reported thermal shift delta Tm with LOC_OS01G39600-cb002 for COC(=O)Nc1ccc(-c2nc(N3CCOCC3)c3cnn(C4CCN(C(=O)OC)CC4)c3n2)cc1 . Could you help?
-0.17

Let us now turn to C=CC(=O)Nc1cccc(Nc2nc(Nc3ccc(N4CCN(C(C)=O)CC4)cc3OC)ncc2C(F)(F)F)c1
-0.84

----------
tested on: LOC_OS03G50450-cb001; test: thermal shift delta Tm vs DMSO control; higher = stronger stabilization (binding); settings: 12.5 µM; protein concentration 2 µM
Outcome label depends on thermal shift delta Tm relative to 0.2 °C: at/above gives yes, below gives no.

| compound | label-class |
| --- | --- |
| N#Cc1ccc2[nH]c(O)c(-c3ccc(CN4CCOCC4)cn3)c2c1 | yes |

// switching to the query compound
Is thermal shift delta Tm for COc1cc(Nc2ncc(F)c(Nc3ccc4c(n3)N(COP(=O)(O)O)C(=O)C(C)(C)O4)n2)cc(OC)c1OC [Fostamatinib (R788)] at or above 0.2 °C?
yes

----------
test system: LOC_OS01G67340-cb003; experiment: thermal shift delta Tm vs DMSO control; higher = stronger stabilization (binding); conditions: 12.5 µM; protein concentration 2 µM
# label = T if thermal shift delta Tm >= 1 °C else F

Would you please look over these solved cases?
| compound | label-class |
| --- | --- |
| COc1cc2ncnc(Oc3ccc(CC(=O)Nc4cnn(C(C)C)c4)cc3)c2cc1OC | F |
| O=C(c1ccc(/C=C/c2n[nH]c3ccccc23)cc1)N1CCNCC1 | T |
| c1ccc(-c2[nH]ncc2-c2ccnc3ccccc23)nc1 | F |
| O=S(=O)(NCCNC/C=C/c1ccc(Br)cc1)c1cccc2cnccc12 | F |
| O=C(O)CCC(=O)Nc1ccc(Br)cn1 | F |
| Cc1ccc([N+](=O)[O-])cc1S(=O)(=O)N(C)/N=C/c1cnc2ccc(Br)cn12 | T |
| CN1C(=O)[C@@H](NC(=O)c2n[nH]c(Cc3ccccc3)n2)COc2ccccc21 | F |
| CN1CCN(c2cccc(Nc3nc4c(-c5ccc(S(C)(=O)=O)cc5)cccn4n3)c2)CC1 | T |
| Cc1ccc(-n2nc(C(C)(C)C)cc2NC(=O)Nc2ccc(OCCN3CCOCC3)c3ccccc23)cc1 | F |
| COc1ccc(-c2ccc3c(N4CCOCC4)nc(N4C[C@@H](C)O[C@@H](C)C4)nc3n2)cc1CO | F |

Decide: thermal shift delta Tm of CO[C@H]1C[C@@H]2CC[C@@H](C)[C@@](O)(O2)C(=O)C(=O)N2CCCC[C@H]2C(=O)O[C@H]([C@H](C)C[C@@H]2CC[C@@H](O)[C@H](OC)C2)CC(=O)[C@H](C)/C=C(\C)[C@@H](O)[C@@H](OC)C(=O)[C@H](C)C[C@H](C)/C=C/C=C/C=C/1C [Rapamycin (Sirolimus)] >= 1 °C?
F

Okay, and O=C1c2c(O)cc(O)cc2OC(c2ccc(O)c(O)c2)C1O (stereo not drawn) [Taxifolin (Dihydroquercetin)] ?
F

Same thing, different compound: O=C(NCCO)c1cccc(-c2cc(Nc3ccc(OC(F)(F)F)cc3)ncn2)c1
F

Now try O=C1NC(=O)C(=Cc2ccc(-c3ccc(F)cc3)o2)S1 (stereo in doubt) .
T

Queued: Cc1cc2c(F)c(Oc3ncnn4cc(OC[C@@H](C)OC(=O)[C@H](C)N)c(C)c34)ccc2[nH]1
F

Item: C=CC(=O)N1CCC[C@@H](n2nc(-c3ccc(Oc4ccccc4)cc3)c3c(N)ncnc32)C1
F

Further, for COc1cc2c(Oc3ccc(NC(=O)C4(C(=O)Nc5ccc(F)cc5)CC4)cc3F)ccnc2cc1OCCCN1CCOCC1 ?
T

Moving on to the next compound: C=C(C)[C@@H]1CC[C@]2(C)CC[C@]3(C)[C@H](CC[C@@H]4[C@@]5(C)CC[C@H](O)C(C)(C)[C@@H]5CC[C@]43C)[C@@H]12
F
